The entries below come with measured metabolised at 1 h values attached.
Assay: Hydrolysis of FP derivatives in rat plasma
Format: in vitro ADME
Conditions: Table 4; rat plasma (Compound Nos. 8 to 13), 37° C., one hour; read-out: Hydrolyzing rate
EXPERIMENTAL_READOUT: metabolised at 1 h (%)

MOLECULE | EXPERIMENTAL_READOUT | VALUE_UNITS | MEASURED_VALUE
CCC(=O)OCCOC(=O)C(C)c1ccc(-c2ccccc2)c(F)c1 (stereo not drawn) [Compound No. 9] | metabolised at 1 h | % | 98.9
CC(C)=CC(=O)OCCOC(=O)C(C)c1ccc(-c2ccccc2)c(F)c1 (stereo not drawn) [Compound No. 11] | metabolised at 1 h | % | 99.8
C/C=C/C(=O)OCCOC(=O)C(C)c1ccc(-c2ccccc2)c(F)c1 (stereo not drawn) [Compound No. 10] | metabolised at 1 h | % | 99.5
CC(C)=CCCC(C)=CC(=O)OCCOC(=O)C(C)c1ccc(-c2ccccc2)c(F)c1 (stereo not drawn) [Compound No. 13] | metabolised at 1 h | % | 101
CC=CC=CC(=O)OCCOC(=O)C(C)c1ccc(-c2ccccc2)c(F)c1 (stereo not drawn) [Compound No. 12] | metabolised at 1 h | % | 100
CC(=O)OCCOC(=O)C(C)c1ccc(-c2ccccc2)c(F)c1 (stereo not drawn) [Compound No. 8] | metabolised at 1 h | % | 101

* * *

Test: Hydrolysis of FP derivatives in human plasma
Type: in vitro ADME
Settings: human, plasma, Table 1; human plasma, 37° C., one hour; read-out: Hydrolyzing rate
The entries below come with measured metabolised at 1 h values attached.
EXPERIMENTAL_READOUT: metabolised at 1 h

MOLECULE | MEASURED_VALUE
CC(C)=CC(=O)OCOC(=O)C(C)c1ccc(-c2ccccc2)c(F)c1 (stereo not shown) | 64.8%
CCCCCCCCCCCCCCCC(=O)OCOC(=O)C(C)c1ccc(-c2ccccc2)c(F)c1 (stereo not shown) | 3.8%
C/C=C/C(=O)OCOC(=O)C(C)c1ccc(-c2ccccc2)c(F)c1 (stereo not shown) | 81.4%
CC(C(=O)OCOC(=O)C(C)(C)C)c1ccc(-c2ccccc2)c(F)c1 (stereo not shown) | 70.3%

* * *

Experiment: Acute toxicity
Design: species or system male SLC-ddY mice
Settings: mouse, in vivo, po, Table 1; orally in mice, 50% lethal dose
LD50 at 336 h under 800 mg/kg gets rule met, anything at or over 800 mg/kg gets rule not met.

COMPOUND | ANSWER_LABEL
CC(C(=O)O)c1ccc(-c2ccccc2)c(F)c1 (stereo not shown) [FP, 2-(2-fluoro-4-biphenylyl)propionic acid, reference compound] | rule met
CC(C)=CC(=O)OCOC(=O)C(C)c1ccc(-c2ccccc2)c(F)c1 (stereo not shown) | rule not met
COc1ccc2c(c1)c(CC(=O)OCC(=O)O)c(C)n2C(=O)c1ccc(Cl)cc1 [acemethacin, reference compound] | rule met
CC(C)=CC(=O)OCCOC(=O)C(C)c1ccc(-c2ccccc2)c(F)c1 (stereo not shown) | rule not met
COc1ccc2c(c1)c(CC(=O)O)c(C)n2C(=O)c1ccc(Cl)cc1 [indomethacin, reference compound] | rule met
CC=CC=CC(=O)OCCOC(=O)C(C)c1ccc(-c2ccccc2)c(F)c1 (stereo not shown) | rule met
CCC(=O)OCCOC(=O)C(C)c1ccc(-c2ccccc2)c(F)c1 (stereo not shown) | rule met
CC(C)C(=O)OCOC(=O)C(C)c1ccc(-c2ccccc2)c(F)c1 (stereo not shown) | rule met
CCC(=O)OCOC(=O)C(C)c1ccc(-c2ccccc2)c(F)c1 (stereo not shown) | rule met
CC(=O)OCOC(=O)C(C)c1ccc(-c2ccccc2)c(F)c1 (stereo not shown) | rule not met
C/C=C/C(=O)OCOC(=O)C(C)c1ccc(-c2ccccc2)c(F)c1 (stereo not shown) | rule met
CCCCCCCCCCCCCCCC(=O)OCOC(=O)C(C)c1ccc(-c2ccccc2)c(F)c1 (stereo not shown) | rule not met
CC(C(=O)OCOC(=O)C(C)(C)C)c1ccc(-c2ccccc2)c(F)c1 (stereo not shown) | rule not met
CC(C)=CCCC(C)=CC(=O)OCCOC(=O)C(C)c1ccc(-c2ccccc2)c(F)c1 (stereo not shown) | rule met
CC(=O)OCCOC(=O)C(C)c1ccc(-c2ccccc2)c(F)c1 (stereo not shown) | rule met

* * *

System: carrageenan-induced edema
Test: Inhibitory effect on carrageenan-induced edema
Type: in vivo, Wistar male rats
Settings: Rattus norvegicus, po, 1 h, read-out: ED50 p.o.

COMPOUND | ED50 (mg/kg)
C/C=C/C(=O)OCOC(=O)C(C)c1ccc(-c2ccccc2)c(F)c1 (stereo not shown) | 0.6
C/C=C/C(=O)OCCOC(=O)C(C)c1ccc(-c2ccccc2)c(F)c1 (stereo not shown) | 0.9
CCCCCCCCCCCCCCCC(=O)OCOC(=O)C(C)c1ccc(-c2ccccc2)c(F)c1 (stereo not shown) | 1.5
CCC(=O)OCOC(=O)C(C)c1ccc(-c2ccccc2)c(F)c1 (stereo not shown) | 0.5

* * *

Experiment: Gastric ulceration (gastric irritation test)
Set-up: species or system Wistar male rats
Conditions: rat, in vivo, po, Table 1; orally in rats, 50% ulcerative dose; read-out: UD50

COMPOUND | TD50 at 6 h
CCC(=O)OCCOC(=O)C(C)c1ccc(-c2ccccc2)c(F)c1 (stereo not drawn) [Compound No. 9] | 2 mg/kg
CC(C)=CC(=O)OCOC(=O)C(C)c1ccc(-c2ccccc2)c(F)c1 (stereo not drawn) [Compound No. 5] | 2 mg/kg
C/C=C/C(=O)OCCOC(=O)C(C)c1ccc(-c2ccccc2)c(F)c1 (stereo not drawn) [Compound No. 10] | 3 mg/kg
CC(=O)OCOC(=O)C(C)c1ccc(-c2ccccc2)c(F)c1 (stereo not drawn) [Compound No. 1] | 3.7 mg/kg
CCC(=O)OCOC(=O)C(C)c1ccc(-c2ccccc2)c(F)c1 (stereo not drawn) [Compound No. 2] | 2.5 mg/kg
CC(C)=CCCC(C)=CC(=O)OCCOC(=O)C(C)c1ccc(-c2ccccc2)c(F)c1 (stereo not drawn) [Compound No. 13] | 3 mg/kg
CC(C)=CC(=O)OCCOC(=O)C(C)c1ccc(-c2ccccc2)c(F)c1 (stereo not drawn) [Compound No. 11] | 3 mg/kg
CC=CC=CC(=O)OCCOC(=O)C(C)c1ccc(-c2ccccc2)c(F)c1 (stereo not drawn) [Compound No. 12] | 3 mg/kg
C/C=C/C(=O)OCOC(=O)C(C)c1ccc(-c2ccccc2)c(F)c1 (stereo not drawn) [Compound No. 4] | 2 mg/kg
CC(C(=O)OCOC(=O)C(C)(C)C)c1ccc(-c2ccccc2)c(F)c1 (stereo not drawn) [Compound No. 7] | 2.5 mg/kg
CC(C)C(=O)OCOC(=O)C(C)c1ccc(-c2ccccc2)c(F)c1 (stereo not drawn) [Compound No. 3] | 2 mg/kg
CC(C(=O)O)c1ccc(-c2ccccc2)c(F)c1 (stereo not drawn) [FP, 2-(2-fluoro-4-biphenylyl)propionic acid, reference compound] | 1 mg/kg
CC(=O)OCCOC(=O)C(C)c1ccc(-c2ccccc2)c(F)c1 (stereo not drawn) [Compound No. 8] | 2 mg/kg
COc1ccc2c(c1)c(CC(=O)O)c(C)n2C(=O)c1ccc(Cl)cc1 [indomethacin, reference compound] | 5 mg/kg
CCCCCCCCCCCCCCCC(=O)OCOC(=O)C(C)c1ccc(-c2ccccc2)c(F)c1 (stereo not drawn) [Compound No. 6] | 5 mg/kg

* * *

The entries below come with measured ED50 values attached.
Test system: carrageenan-induced edema
Assay: Inhibitory effect on carrageenan-induced edema
Assay type: in vivo, Wistar male rats
Conditions: Rattus norvegicus, po, read-out: ED50 p.o.

MOLECULE | VALUE_UNITS | ED50
CC(C)=CC(=O)OCCOC(=O)C(C)c1ccc(-c2ccccc2)c(F)c1 (stereo not shown) [Compound No. 11] | mg/kg | 1
CC(=O)OCCOC(=O)C(C)c1ccc(-c2ccccc2)c(F)c1 (stereo not shown) [Compound No. 8] | mg/kg | 0.7
C/C=C/C(=O)OCOC(=O)C(C)c1ccc(-c2ccccc2)c(F)c1 (stereo not shown) [Compound No. 4] | mg/kg | 0.6
CC=CC=CC(=O)OCCOC(=O)C(C)c1ccc(-c2ccccc2)c(F)c1 (stereo not shown) [Compound No. 12] | mg/kg | 0.9
CCC(=O)OCOC(=O)C(C)c1ccc(-c2ccccc2)c(F)c1 (stereo not shown) [Compound No. 2] | mg/kg | 0.5
C/C=C/C(=O)OCCOC(=O)C(C)c1ccc(-c2ccccc2)c(F)c1 (stereo not shown) [Compound No. 10] | mg/kg | 0.9
CC(=O)OCOC(=O)C(C)c1ccc(-c2ccccc2)c(F)c1 (stereo not shown) [Compound No. 1] | mg/kg | 0.5

* * *

Test: Hydrolysis of FP derivatives in human plasma
Format: in vitro ADME
Settings: human, plasma, Table 4; human plasma (Compound Nos. 1 to 7), 37° C., one hour; read-out: Hydrolyzing rate
The entries below come with measured metabolised at 1 h values attached.

MOLECULE | metabolised at 1 h / %
CCC(=O)OCOC(=O)C(C)c1ccc(-c2ccccc2)c(F)c1 (stereo not shown) | 94.6
CCCCCCCCCCCCCCCC(=O)OCOC(=O)C(C)c1ccc(-c2ccccc2)c(F)c1 (stereo not shown) | 3.8
CC(C)C(=O)OCOC(=O)C(C)c1ccc(-c2ccccc2)c(F)c1 (stereo not shown) | 86.3
C/C=C/C(=O)OCOC(=O)C(C)c1ccc(-c2ccccc2)c(F)c1 (stereo not shown) | 81.4
CC(=O)OCOC(=O)C(C)c1ccc(-c2ccccc2)c(F)c1 (stereo not shown) | 97.5
CC(C(=O)OCOC(=O)C(C)(C)C)c1ccc(-c2ccccc2)c(F)c1 (stereo not shown) | 70.3
CC(C)=CC(=O)OCOC(=O)C(C)c1ccc(-c2ccccc2)c(F)c1 (stereo not shown) | 115
